# credit: patent US8119563B2

tested on: tobacco budworm (Heliothis virescens [Fabricius]); test: surface-treated diet test, insecticidal activity against tobacco budworm; format: in vivo; conditions: 0.25 millimoles of candidate insecticide on the surface of the diet; second instar larvae; five-day exposure; compared to total number of insects infested
Recorded Percent Mortality for the following compounds
Numbers only; they are read as %.

Some solved cases for reference:
>>> observed_measurement("CCON=Cc1ccc(C[N+]2(O)CCC(O)(C(c3ccc(OC(F)(F)F)cc3)c3ccc(OC(F)(F)F)cc3)CC2)cc1.O=C(O)CC(O)(CC(=O)O)C(=O)[O-] (stereo not drawn) [Compound 494]")
100
>>> observed_measurement("CCOC(C)C(=O)[O-].CCON=Cc1ccc(C[N+]2(O)CCC(O)(C(c3ccc(OC(F)(F)F)cc3)c3ccc(OC(F)(F)F)cc3)CC2)cc1 (stereo not drawn) [Compound 484]")
100
>>> observed_measurement("CC1(C)[C@@H]2CCC1(CS(=O)(=O)[O-])C(=O)C2.OC1(C(c2ccc(OC(F)(F)F)cc2)c2ccc(OC(F)(F)F)cc2)CC[N+](O)(Cc2ccc(Oc3ccccn3)cc2)CC1 (stereo not drawn) [Compound 505]")
100
>>> observed_measurement("CCOC(=O)COc1ccc(CN2CCC(O)(C(c3ccc(C(F)(F)F)cc3)c3ccc(C(F)(F)F)cc3)CC2)cc1 [Compound 291]")
17
>>> observed_measurement("OC1(C(c2ccc(OC(F)(F)F)cc2)c2ccc(C3OCCO3)cc2)CCN(Cc2ccc(Oc3ccccn3)cc2)CC1 (racemic) [Compound 295]")
100

Problem: Field: Percent Mortality (tobacco budworm (Heliothis virescens [Fabricius])). Entry: OC1(C(c2ccc(C(F)(F)F)cc2)c2cc(F)cc(F)c2)CCN(Cc2ccc(Oc3ncccn3)cc2)CC1 (stereo not drawn) [Compound 11]
Result: 33

* * *

tested on: tobacco budworm (Heliothis virescens [Fabricius]); test: surface-treated diet test, insecticidal activity against tobacco budworm; assay type: in vivo; settings: 0.25 millimoles of candidate insecticide on the surface of the diet; second instar larvae; five-day exposure; compared to total number of insects infested
property-name: Percent Mortality (%)
Numbers only; they are read as %.

Some solved cases for reference:
>>> observed_measurement("CC(C)Oc1ccc(C[N+]2([O-])CCC(O)(C(c3ccc(C(F)(F)F)cc3)c3ccc(C(F)(F)F)cc3)CC2)cc1 (stereo not shown)")
100
>>> observed_measurement("OC1(C(c2ccc(OC(F)(F)F)cc2)c2ccc(OC(F)(F)F)cc2)CCN(CCc2ccc(Cl)cc2)CC1")
83
>>> observed_measurement("OC1(C(c2ccccc2F)c2ccccc2F)CCN(Cc2ccc(Oc3ncccn3)cc2)CC1")
0

Problem: Suppose we examine the compound N#Cc1cccnc1Oc1ccc(CN2CCC(O)(C(c3ccc(OC(F)(F)F)cc3)c3ccc(OC(F)(F)F)cc3)CC2)cc1 ; what Percent Mortality value has been reported?
Result: 100

* * *

test system: tobacco budworm (Heliothis virescens [Fabricius]); test: surface-treated diet test, insecticidal activity against tobacco budworm; format: in vivo; details: 0.25 millimoles of candidate insecticide on the surface of the diet; second instar larvae; five-day exposure; compared to total number of insects infested
property-name: Percent Mortality (%)
Numbers only; they are read as %.

>>> observed_measurement("OC1(C(c2ccc(C(F)(F)F)cc2)c2ccc(C(F)(F)F)cc2)CCN(Cc2ccc(Oc3ccc(Cl)nn3)cc2)CC1 [Compound 307]")
100
>>> observed_measurement("OC1(C(c2ccc(OC(F)(F)F)cc2)c2ccc(Cl)cc2F)CCN(Cc2ccc(Oc3ccccn3)cc2)CC1 (stereo not drawn) [Compound 445]")
100
>>> observed_measurement("CCOC(=O)COc1ccc(C[N+]2([O-])CCC(O)(C(c3ccc(OC(F)(F)F)cc3)c3ccc(OC(F)(F)F)cc3)CC2)cc1 (stereo not drawn) [Compound 357]")
0
>>> observed_measurement("Cc1cccnc1Oc1ccc(CN2CCC(O)(C(c3ccc(OC(F)(F)F)cc3)c3ccc(OC(F)(F)F)cc3)CC2)cc1 [Compound 271]")
100

Problem: Suppose we examine the compound CC(=O)OC(c1ccc(Cl)cc1)c1ccc(CN2CCC(O)(C(c3ccc(OC(F)(F)F)cc3)c3ccc(OC(F)(F)F)cc3)CC2)cc1 (racemic) [Compound 289] ; what Percent Mortality value has been reported?
Result: 100

Problem: Suppose we examine the compound [O-][N+]1(Cc2ccc(Oc3ccccn3)cc2)CCC(O)(C(c2ccc(F)cc2)c2ccc(OC(F)(F)F)cc2)CC1 (stereo not drawn) [Compound 346] ; what Percent Mortality value has been reported?
Result: 100

* * *

system: tobacco budworm (Heliothis virescens [Fabricius]); experiment: surface-treated diet test, insecticidal activity against tobacco budworm; type: in vivo; conditions: 0.25 millimoles of candidate insecticide on the surface of the diet; second instar larvae; five-day exposure; compared to total number of insects infested
property-name: Percent Mortality (%)
Numbers only; they are read as %.

>>> observed_measurement("OC1(C(c2ccc(OC(F)(F)F)cc2)c2cc(Cl)cc(Cl)c2)CCN(Cc2ccc(Oc3ccccn3)cc2)CC1 (stereo not shown)")
100
>>> observed_measurement("[O-][N+]1(Cc2ccc(Oc3ncccn3)cc2)CCC(O)(C(c2ccc(Cl)c(F)c2)c2ccc(Cl)c(F)c2)CC1 (stereo not shown)")
50

Problem: Suppose we examine the compound CCS(=O)(=O)[O-].OC1(C(c2ccc(OC(F)(F)F)cc2)c2ccc(OC(F)(F)F)cc2)CC[N+](O)(Cc2ccc(Oc3ccccn3)cc2)CC1 (stereo not shown) ; what Percent Mortality value has been reported?
Result: 100

Problem: Suppose we examine the compound COc1cc(C[N+]2([O-])CCC(O)(C(c3ccc(OC(F)(F)F)cc3)c3ccc(OC(F)(F)F)cc3)CC2)ccc1Oc1ccccn1 (stereo not shown) ; what Percent Mortality value has been reported?
Result: 100

Problem: Suppose we examine the compound [O-][N+]1(Cc2ccc(C3OCCO3)cc2)CCC(O)(C(c2ccc(C(F)(F)F)cc2)c2ccc(C(F)(F)F)cc2)CC1 (stereo not shown) ; what Percent Mortality value has been reported?
Result: 100

Problem: Suppose we examine the compound OC1(C(c2ccc(OC(F)(F)F)cc2)c2cccc(Cl)c2Cl)CCN(Cc2ccc(Oc3ccccn3)cc2)CC1 (stereo not shown) ; what Percent Mortality value has been reported?
Result: 100

Problem: Suppose we examine the compound O=C(NCc1ccc(Cl)c(Cl)c1)Oc1ccc(CN2CCC(O)(C(c3ccc(OC(F)(F)F)cc3)c3ccc(OC(F)(F)F)cc3)CC2)cc1 ; what Percent Mortality value has been reported?
Result: 33

Problem: Suppose we examine the compound OC1(C(c2ccc(OC(F)(F)F)cc2)c2ccc(OC(F)(F)F)cc2)CCN(Cc2ccc(C3OCCO3)cc2)CC1 ; what Percent Mortality value has been reported?
Result: 100

* * *

test system: tobacco budworm (Heliothis virescens [Fabricius]); experiment: surface-treated diet test, insecticidal activity against tobacco budworm; assay type: in vivo; conditions: 0.25 millimoles of candidate insecticide on the surface of the diet; second instar larvae; five-day exposure; compared to total number of insects infested
Recorded Percent Mortality for the following compounds
Numbers only; they are read as %.

Some solved cases for reference:
>>> observed_measurement("Cc1ccc(C(c2ccc(OC(F)(F)F)cc2)C2(O)CCN(Cc3ccc(Oc4ccccn4)cc3)CC2)cc1 (stereo not drawn)")
100
>>> observed_measurement("OC1(C(c2cc(F)cc(F)c2)c2cc(F)cc(F)c2)CCN(Cc2ccc(Oc3ncccn3)cc2)CC1")
0
>>> observed_measurement("O=C([O-])CCCCCC(=O)O.OC1(C(c2ccc(OC(F)(F)F)cc2)c2ccc(OC(F)(F)F)cc2)CC[N+](O)(Cc2ccc(Oc3ccccn3)cc2)CC1 (stereo not drawn)")
100
>>> observed_measurement("[O-][N+]1(Cc2ccc(Oc3ccccn3)cc2)CCC(O)(C(c2ccc(OC(F)(F)F)cc2)c2cccc(Cl)c2Cl)CC1 (stereo not drawn)")
100
>>> observed_measurement("[O-][N+]1(Cc2ccc(C3OCCO3)cc2)CCC(O)(C(c2ccc(OC(F)(F)F)cc2)c2ccc(OC(F)(F)F)cc2)CC1 (stereo not drawn)")
100

API: the following record is the query input.
Problem: Suppose we examine the compound OC(COc1ccc(Cl)cc1)CN1CCC(O)(C(c2ccc(OC(F)(F)F)cc2)c2ccc(OC(F)(F)F)cc2)CC1 (stereo not drawn) ; what Percent Mortality value has been reported?
Result: 17

* * *

test system: tobacco budworm (Heliothis virescens [Fabricius]); experiment: surface-treated diet test, insecticidal activity against tobacco budworm; assay type: in vivo; conditions: 0.25 millimoles of candidate insecticide on the surface of the diet; second instar larvae; five-day exposure; compared to total number of insects infested
property-name: Percent Mortality (%)
Numbers only; they are read as %.

>>> observed_measurement("OC1(C(c2ccccc2Cl)c2ccccc2Cl)CCN(Cc2ccc(Oc3ncccn3)cc2)CC1")
0
>>> observed_measurement("CC1(C)COC(c2ccc(C[N+]3([O-])CCC(O)(C(c4ccc(OC(F)(F)F)cc4)c4ccc(OC(F)(F)F)cc4)CC3)cc2)OC1 (stereo not shown)")
100
>>> observed_measurement("COCCOCCON=Cc1ccc(CN2CCC(O)(C(c3ccc(OC(F)(F)F)cc3)c3ccc(OC(F)(F)F)cc3)CC2)cc1")
100
>>> observed_measurement("N#CCON=Cc1ccc(C[N+]2([O-])CCC(O)(C(c3ccc(OC(F)(F)F)cc3)c3ccc(OC(F)(F)F)cc3)CC2)cc1 (stereo not shown)")
100
>>> observed_measurement("[O-][N+]1(CCc2ccc(Cl)cc2)CCC(O)(C(c2ccc(OC(F)(F)F)cc2)c2ccc(OC(F)(F)F)cc2)CC1 (stereo not shown)")
100
>>> observed_measurement("[O-][N+]1(CCCOc2ccc(Cl)cc2)CCC(O)(C(c2ccc(OC(F)(F)F)cc2)c2ccc(OC(F)(F)F)cc2)CC1 (stereo not shown)")
100
>>> observed_measurement("OC(COc1ccccc1Cl)CN1CCC(O)(C(c2ccc(OC(F)(F)F)cc2)c2ccc(OC(F)(F)F)cc2)CC1 (stereo not shown)")
17
>>> observed_measurement("CCON=Cc1ccc(CN2CCC(O)(C(c3ccc(OC(F)(F)F)cc3)c3ccc(OC(F)(F)F)cc3)CC2)cc1")
100

Problem: Field: Percent Mortality (tobacco budworm (Heliothis virescens [Fabricius])). Entry: [O-][N+]1(Cc2ccc(OCc3ccccc3)cc2)CCC(O)(C(c2ccc(OC(F)(F)F)cc2)c2ccc(OC(F)(F)F)cc2)CC1 (stereo not shown)
Result: 100

Problem: Field: Percent Mortality (tobacco budworm (Heliothis virescens [Fabricius])). Entry: [O-][N+]1(Cc2ccc(Oc3ccccn3)cc2)CCC2(CC1)OC2(c1ccc(OC(F)(F)F)cc1)c1ccc(OC(F)(F)F)cc1 (stereo not shown)
Result: 100

Problem: Field: Percent Mortality (tobacco budworm (Heliothis virescens [Fabricius])). Entry: OC1(C(c2ccc(OC(F)(F)F)cc2)c2ccccc2Cl)CCN(Cc2ccc(Oc3ccccn3)cc2)CC1 (stereo not shown)
Result: 100

Problem: Field: Percent Mortality (tobacco budworm (Heliothis virescens [Fabricius])). Entry: CCCCC(CC)C(=O)[O-].OC1(C(c2ccc(OC(F)(F)F)cc2)c2ccc(OC(F)(F)F)cc2)CC[N+](O)(Cc2ccc(Oc3ccc(Cl)nn3)cc2)CC1 (stereo not shown)
Result: 100

Problem: Field: Percent Mortality (tobacco budworm (Heliothis virescens [Fabricius])). Entry: CCCCCCCC(=O)[O-].OC1(C(c2ccc(OC(F)(F)F)cc2)c2ccc(OC(F)(F)F)cc2)CC[N+](O)(Cc2ccc(Oc3ccccn3)cc2)CC1 (stereo not shown)
Result: 100
